The reported measurements were obtained from patent US20220380368A1.

# TEST_SYSTEM: AR protein (Homo sapiens, UniProt P10275)
# Construct: endogenous in cells; host or cells: VCaP
# Sequence (P10275 whole entry): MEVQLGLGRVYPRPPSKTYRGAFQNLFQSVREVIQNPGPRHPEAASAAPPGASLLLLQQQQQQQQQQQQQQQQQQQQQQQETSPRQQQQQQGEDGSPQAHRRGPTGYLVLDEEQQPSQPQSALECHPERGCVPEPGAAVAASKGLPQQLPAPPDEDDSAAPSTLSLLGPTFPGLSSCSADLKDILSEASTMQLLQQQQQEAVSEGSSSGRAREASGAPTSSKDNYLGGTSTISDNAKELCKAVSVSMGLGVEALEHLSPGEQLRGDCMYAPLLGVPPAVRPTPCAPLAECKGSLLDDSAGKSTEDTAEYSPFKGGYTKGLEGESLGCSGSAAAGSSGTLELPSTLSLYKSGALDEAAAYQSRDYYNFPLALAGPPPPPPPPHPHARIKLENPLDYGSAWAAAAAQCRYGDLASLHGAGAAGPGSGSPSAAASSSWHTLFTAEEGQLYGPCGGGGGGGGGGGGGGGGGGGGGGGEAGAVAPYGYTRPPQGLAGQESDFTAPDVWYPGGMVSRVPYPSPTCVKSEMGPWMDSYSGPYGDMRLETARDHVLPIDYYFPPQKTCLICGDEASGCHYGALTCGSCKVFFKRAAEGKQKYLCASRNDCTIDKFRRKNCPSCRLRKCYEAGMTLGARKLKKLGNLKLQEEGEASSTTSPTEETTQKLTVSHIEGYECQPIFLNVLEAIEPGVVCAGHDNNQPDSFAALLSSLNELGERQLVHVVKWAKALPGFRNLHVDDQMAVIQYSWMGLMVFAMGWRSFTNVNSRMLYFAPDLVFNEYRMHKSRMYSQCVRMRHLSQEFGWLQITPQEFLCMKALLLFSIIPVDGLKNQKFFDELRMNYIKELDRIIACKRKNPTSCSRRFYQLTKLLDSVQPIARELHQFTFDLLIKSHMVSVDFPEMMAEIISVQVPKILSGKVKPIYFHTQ
# EXPERIMENT_DESCRIPTION: Western blotting analysis of AR protein levels in VCaP cells, band quantification, DC50/DC90
# Format: cell-based
# PARTICULARS: VCaP cells, Table 6; read-out: VCaP DC50
OUTCOME_MEASURE: DC50

>  <COMPOUND>
C[C@H]1CC2(CCN(c3cnc(C(=O)N4CCC(N5CCN(c6ccc7c(c6)C(=O)N(C6CCC(=O)NC6=O)C7=O)CC5)CC4)cn3)CC2)CN1c1ccc(C#N)c(Cl)c1 (stereo partly shown) [Cpd. No. 497]

>  <OUTCOME_MEASURE>
DC50

>  <MEASUREMENT>
< 1 nM

$$$$
>  <COMPOUND>
C[C@H]1CC2(CCN(c3ncc(C(=O)N4CCC(N5CCN(c6cc7c(cc6F)C(=O)N(C6CCC(=O)NC6=O)C7=O)CC5)CC4)cn3)CC2)CN1c1ccc(C#N)c(Cl)c1 (stereo partly shown) [Cpd. No. 525]

>  <OUTCOME_MEASURE>
DC50

>  <MEASUREMENT>
< 1 nM

$$$$
>  <COMPOUND>
C[C@H]1CC2(CCN(c3ccc(C(=O)N4CCC(CN5CCN(c6ccc7c(c6)C(=O)N(C6CCC(=O)NC6=O)C7=O)CC5)CC4)nn3)CC2)CN1c1ccc(C#N)c(Cl)c1 (stereo partly shown) [Cpd. No. 489]

>  <OUTCOME_MEASURE>
DC50

>  <MEASUREMENT>
1 to 10 nM

$$$$
>  <COMPOUND>
C[C@H]1CC2(CCN(c3ccc(C(=O)N4CCC(CN5Cc6cc7c(cc6C5)C(=O)N(C5CCC(=O)NC5=O)C7=O)CC4)c(F)c3)CC2)CN1c1ccc(C#N)c(Cl)c1 (stereo partly shown) [Cpd. No. 534]

>  <OUTCOME_MEASURE>
DC50

>  <MEASUREMENT>
< 1 nM

$$$$
>  <COMPOUND>
C[C@H]1CC2(CCN(c3ccc(C(=O)N4CCN(C5CCN(c6ccc7c(c6)C(=O)N(C6CCC(=O)NC6=O)C7=O)CC5)CC4)cc3F)CC2)CN1c1ccc(C#N)c(Cl)c1 (stereo partly shown) [Cpd. No. 522]

>  <OUTCOME_MEASURE>
DC50

>  <MEASUREMENT>
< 1 nM

$$$$
>  <COMPOUND>
C[C@H]1CC2(CCN(c3ccc(C(=O)N4CCN(C5CN(c6cc7c(cc6F)C(=O)N(C6CCC(=O)NC6=O)C7=O)C5)CC4)cn3)CC2)CN1c1ccc(C#N)c(Cl)c1 (stereo partly shown) [Cpd. No. 506]

>  <OUTCOME_MEASURE>
DC50

>  <MEASUREMENT>
< 1 nM

$$$$
>  <COMPOUND>
C[C@H]1CC2(CCN(c3cnc(C(=O)N4CCN(CC5CN(c6cc7c(cc6F)C(=O)N(C6CCC(=O)NC6=O)C7=O)C5)CC4)cn3)CC2)CN1c1ccc(C#N)c(Cl)c1 (stereo partly shown) [Cpd. No. 488]

>  <OUTCOME_MEASURE>
DC50

>  <MEASUREMENT>
1 to 10 nM

$$$$
>  <COMPOUND>
C[C@H]1CC2(CCN(c3ccc(C(=O)N4CCN(C5CN(c6cc7c(cc6F)C(=O)N(C6CCC(=O)NC6=O)C7=O)C5)CC4)cn3)CC2)CN1c1ccc(C#N)c(Cl)c1 (stereo partly shown) [Cpd. No. 504]

>  <OUTCOME_MEASURE>
DC50

>  <MEASUREMENT>
< 1 nM

$$$$
>  <COMPOUND>
C[C@H]1CC2(CCN(c3ncc(C(=O)N4CCN(C5CCN(c6ccc7c(c6)C(=O)N(C6CCC(=O)NC6=O)C7=O)CC5)CC4)cn3)CC2)CN1c1ccc(C#N)c(Cl)c1 (stereo partly shown) [Cpd. No. 513]

>  <OUTCOME_MEASURE>
DC50

>  <MEASUREMENT>
< 1 nM

$$$$
>  <COMPOUND>
C[C@H]1CC2(CCN(c3ccc(C(=O)N4CC(N5CCN(c6cc7c(cc6F)C(=O)N(C6CCC(=O)NC6=O)C7=O)CC5)C4)nn3)CC2)CN1c1ccc(C#N)c(Cl)c1 (stereo partly shown) [Cpd. No. 537]

>  <OUTCOME_MEASURE>
DC50

>  <MEASUREMENT>
1 to 10 nM

$$$$
